Examples of binders with documented Relative KD (to VH0VK0) follow.
# Tested target: T1, full length recombinant human 2N4R tau (human, UniProt P10636 1-758)
# T1 construct: bought from rPeptide; pHrodo Red maleimide-labelled where it stands in uptake assays; also called tau1-441; full length tau
# T1 sequence (P10636 other isoform, or with tags, fused parts or gaps limits assumed): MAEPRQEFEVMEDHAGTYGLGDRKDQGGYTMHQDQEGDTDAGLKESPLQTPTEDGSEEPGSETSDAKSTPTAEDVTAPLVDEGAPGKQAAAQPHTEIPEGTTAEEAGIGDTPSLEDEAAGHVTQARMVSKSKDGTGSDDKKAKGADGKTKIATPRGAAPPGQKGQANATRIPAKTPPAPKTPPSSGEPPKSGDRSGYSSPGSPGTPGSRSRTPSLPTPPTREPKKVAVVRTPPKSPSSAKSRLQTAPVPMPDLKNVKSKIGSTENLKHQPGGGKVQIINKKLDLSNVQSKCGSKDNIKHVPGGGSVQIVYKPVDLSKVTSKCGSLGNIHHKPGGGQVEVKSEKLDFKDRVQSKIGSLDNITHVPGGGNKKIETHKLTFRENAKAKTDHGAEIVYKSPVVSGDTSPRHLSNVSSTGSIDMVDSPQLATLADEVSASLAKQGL
# Method notes: SPR SCK, IgG on Protein A, tau in flow
Readout label: Relative KD (to VH0VK0)

{"columns": ["Binder", "Measured number"],
 "data": [
  ["#44_VH4VK4 humanised hIgG1 (antibody, V domains shown, also called VH4Vκ4; pVH/pVL) VH: QVQLQESGPGLVKPSETLSLTCTVSGIDLSSYAMAWVRQAPGKGLEWIGCIDRRGGTFYASWVKGRFTISKDTSKTTVDLQMTSLTAEDTATYFCARDSGAFDPWGQGTLVTVSS VL: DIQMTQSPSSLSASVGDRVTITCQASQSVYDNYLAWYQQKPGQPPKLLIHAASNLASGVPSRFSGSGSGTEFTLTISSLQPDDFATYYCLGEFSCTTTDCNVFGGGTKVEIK", 2.12],
  ["#44 VH4VK3 humanised hIgG1 (antibody, V domains shown, also called VH4Vκ3; Clone VH4VK3 (D)) VH: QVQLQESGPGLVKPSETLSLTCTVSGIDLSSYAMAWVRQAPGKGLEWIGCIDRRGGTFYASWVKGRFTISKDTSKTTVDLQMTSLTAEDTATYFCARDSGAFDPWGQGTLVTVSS VL: DIQMTQSPSSLSASVGDRVTITCQASQSVYDNYLAWYQQKPGQPPKLLIHAASNLASGVPSRFKGSGSGTEFTLTISSLQPDDFATYYCLGEFSCTTTDCNVFGGGTKVEIK", 1.74]
]}
